tested-system: T1, soluble human ASGR-1 carbohydrate binding domain (CBD; amino acid residues 154-281; N-terminal 6xHis tag) (human, UniProt P07306 154-281)
T1 construct: also called ASGR-1 CBD
T1 sequence: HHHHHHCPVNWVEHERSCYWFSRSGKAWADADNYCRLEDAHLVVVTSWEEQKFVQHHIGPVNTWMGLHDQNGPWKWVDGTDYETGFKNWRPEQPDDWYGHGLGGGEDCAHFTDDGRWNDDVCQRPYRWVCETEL
measurement-protocol: Octet BLI, mAb on AR2G tips, 1:1 fit
Excerpt: To quantitate the binding affinity of specific antibodies for ASGR-1 (either purified from hybridoma supernatants or made recombinantly), association and dissociation rates can be measured using a ForteBio Octet instrument. […] Association and dissociation times were chosen to ensure that curvature was present during association curves and measured dissociation levels dropped at least 5% from starting levels. […]
pKd values, listed per item
Reminder that pKd means the negative base-10 logarithm of the concentration expressed in mol/L.

Recorded results for 4 binders are shown here.
binder	pKd
194A4 (antibody, V domains shown, mAb) VH: QVQLVQSGTEVKKPGASLKVSCKASGYTFTVYYLNWVRQAPGQGLEWMGWINPNSGGTNYAQKFQGRVTMTRDTSISTAYMELSRLRSDDTAVYYCARGYDILTGWGQGTLVTVSS VL: EIVLTQSPGTLSLSPGERATLSCRASRGVSNIYLAWYQQKPGQAPRLLIYGASNRATGIPDRFSGSGSGTDFTLTISRLEPEDFAVYYCQHNDYSMFTFGPGTKVDIK	9.15
56E5 (antibody, V domains shown, mAb) VH: QVQLVQSGAEVKKPGASVKVSCQASGYTFTGYHMHWVRQAPGQGLEWMGWINPNNNATNYAQKFQGRVTMTRDTSISTAYMELRRLRSDDTAVYHCARDGTSSFDYWGQGTLVTVSS VL: DIQMTQSPSSVSASVGDRVTITCRASQGIRKWLAWYQQKPGKAPKLLIYAASSLQSGVPSRFSGSGSGTDFTLTISSLQPEDFATYYCQQANSFPFTFGPGTKVDIK	9.30
190F8 (antibody, V domains shown, mAb) VH: QVQLVESGGGVVQPGRSLRLSCAASGFTFSTYGMHWVRQAPGKGLEWVAVIWYDGSNKNYADSVKGRFTISRDNSKNTLYLQMNSLRAEDTAVYYCARDQGVGYDGLDVWGQGTTVTVSS VL: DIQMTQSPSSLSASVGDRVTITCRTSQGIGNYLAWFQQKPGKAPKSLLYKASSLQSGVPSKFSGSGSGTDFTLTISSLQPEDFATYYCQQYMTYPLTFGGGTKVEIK	9.22
22G5 (antibody, V domains shown, mAb) VH: EVQLLESGGGLVQPGGSLRLSCAASGFTFSSYAMNWVRQAPGMGLEWVSVISRSGGYTYYADSVKGRFTISRDNSKNTLYLQMNSLRAEDTAVYYCASRLAVAGSEAFDIWGQGTLVTVSS VL: DIQMTQSPSSLSASVGDRVTITCRASQNISSYLNWYQQKQGKAPKLLIYAASSLQNGVPSRFSGRGSGTDFTLTISSLQPEDFATYYCQQSYRTPLFTFGPGTKVDFK	8.85

Okay, next one:
INPUT: What measured pKd goes with 6G7 (antibody, V domains shown, mAb) VH: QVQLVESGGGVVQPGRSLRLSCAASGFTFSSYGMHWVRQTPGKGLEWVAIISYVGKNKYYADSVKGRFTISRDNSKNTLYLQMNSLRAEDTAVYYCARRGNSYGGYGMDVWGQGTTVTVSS VL: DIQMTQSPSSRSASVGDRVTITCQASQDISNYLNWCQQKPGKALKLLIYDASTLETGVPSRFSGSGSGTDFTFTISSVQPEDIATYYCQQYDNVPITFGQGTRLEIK ?
OUTPUT: 8.70

# credit: patent US20190248902A1
